Reference source for all entries: patent US10189794B2

Listed compounds paired with reported IC50
- systemTested: FGFR4-WT (Homo sapiens (Human), UniProt P22455)
- Sequence (P22455 22-802): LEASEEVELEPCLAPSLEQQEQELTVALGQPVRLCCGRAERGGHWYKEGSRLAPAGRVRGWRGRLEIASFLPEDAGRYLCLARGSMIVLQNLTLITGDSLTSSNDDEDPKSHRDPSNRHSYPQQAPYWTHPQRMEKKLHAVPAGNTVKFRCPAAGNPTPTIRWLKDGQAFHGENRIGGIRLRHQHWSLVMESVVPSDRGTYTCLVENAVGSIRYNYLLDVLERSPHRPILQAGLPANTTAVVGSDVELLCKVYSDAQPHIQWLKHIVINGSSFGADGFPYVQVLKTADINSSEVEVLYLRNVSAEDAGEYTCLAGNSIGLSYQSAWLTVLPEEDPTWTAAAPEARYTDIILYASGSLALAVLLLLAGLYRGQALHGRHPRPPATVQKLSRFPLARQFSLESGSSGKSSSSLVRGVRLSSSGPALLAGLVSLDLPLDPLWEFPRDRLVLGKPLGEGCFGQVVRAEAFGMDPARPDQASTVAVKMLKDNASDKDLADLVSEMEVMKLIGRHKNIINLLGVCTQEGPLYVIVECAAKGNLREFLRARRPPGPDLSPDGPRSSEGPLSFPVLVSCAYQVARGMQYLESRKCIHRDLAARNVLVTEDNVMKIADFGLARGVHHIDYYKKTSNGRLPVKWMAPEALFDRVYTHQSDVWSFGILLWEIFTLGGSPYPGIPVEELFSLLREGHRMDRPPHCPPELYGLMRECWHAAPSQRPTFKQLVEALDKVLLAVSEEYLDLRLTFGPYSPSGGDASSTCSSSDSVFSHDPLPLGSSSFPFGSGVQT
- assayProcedure: Omnia assay for potency assessment against FGFR4 enzyme
- Assay type: biochemical
- conditionInfo: method a: Invitrogen FGFR4-WT 10 nM, ATP 300 uM, Y10-Sox 10 uM; read-out: FGFR4 IC50

Record C=CC(=O)NC1CCCCC1Nc1ncc2c(n1)N(C1CCCN(C(=O)OC(C)(C)C)C1)C(=O)N(c1cc(OC)cc(OC)c1)C2 (racemic) , field IC50: > 1000 nM

Record `C=CC(=O)Nc1ccccc1Nc1ncc2c(n1)N(Cc1cccc(OC)c1)C(=O)N(c1c(Cl)c(OC)cc(OC)c1Cl)C2` , field IC50: < 100 nM

Record C=CC(=O)NC1CC=CCC1Nc1ncc2c(n1)N(C)C(=O)N(c1c(Cl)c(OC)cc(OC)c1Cl)C2 (racemic) , field IC50: < 100 nM

Record C=CC(=O)NC1CCCCC1Nc1ncc2c(n1)N(C1CCCNC1)C(=O)N(c1cc(OC)cc(OC)c1)C2 (racemic) , field IC50: > 1000 nM

Record C=CC(=O)NC1CCCCC1Nc1ncc2c(n1)N(CCOC)C(=O)N(c1c(Cl)c(OC)cc(OC)c1Cl)C2 (racemic) , field IC50: < 100 nM

Record C=CC(=O)NC1CCCCC1Nc1ncc2c(n1)N(Cc1cccnc1)C(=O)N(c1c(Cl)c(OC)cc(OC)c1Cl)C2 (racemic) , field IC50: < 100 nM

Record `C=CC(=O)Nc1ccccc1Nc1ncc2nc(-c3cc(OC)cc(OC)c3)c(=O)n(C)c2n1` , field IC50: 101 to 500 nM

====

Listed compounds paired with reported EC50
- systemTested: pFGFR4 in Huh7 cells (Homo sapiens (Human), UniProt P22455)
- Sequence (P22455 22-802): as above
- assayProcedure: FGFR4 signaling (phospho-FGFR4) in Huh7 cells, MSD
- Format: cell-based
- conditionInfo: Meso Scale assay (MSD), 1 hr treatment, read-out: Signaling EC50 (nM) pFGFR4 (Huh)

Example cases with answers are listed next.
compound	EC50
C=CC(=O)Nc1ccccc1Nc1ncc2c(n1)N(Cc1cccc(NC(=O)CC)c1)C(=O)N(c1c(Cl)c(OC)cc(OC)c1Cl)C2	< 100 nM
C=CC(=O)NC1CCCCC1Nc1ncc2c(n1)N(C)C(=O)N(c1cc(OC)cc(OC)c1Cl)C2 (racemic)	> 1000 nM
C=CC(=O)NC1CCCCC1Nc1ncc2c(n1)N(CCOC)C(=O)N(c1c(Cl)c(OC)cc(OC)c1Cl)C2 (racemic)	101 to 500 nM

Record C=CC(=O)NC1CCCCC1Nc1ncc2c(n1)N(C1CC1)C(=O)N(c1c(Cl)c(OC)cc(OC)c1Cl)C2 (racemic) , field EC50: 501 to 999 nM

Record C=CC(=O)NC1CCCCC1Nc1ncc2c(n1)N(CC#N)C(=O)N(c1c(Cl)c(OC)cc(OC)c1Cl)C2 (racemic) , field EC50: 501 to 999 nM

Record C=CC(=O)NC1CCCCC1Nc1ncc2c(n1)N(CC(F)F)C(=O)N(c1c(Cl)c(OC)cc(OC)c1Cl)C2 (racemic) , field EC50: 101 to 500 nM

Record C=CC(=O)NC1CCCCC1Nc1ncc2c(n1)N(CC(F)F)C(=O)N(c1cc(OC)cc(OC)c1Cl)C2 (racemic) , field EC50: > 1000 nM

Record C=CC(=O)NC1CCCCC1Nc1ncc2c(n1)N(CCF)C(=O)N(c1cc(OC)cc(OC)c1Cl)C2 (racemic) , field EC50: > 1000 nM

====

Listed compounds paired with reported GI50
- Tested on: Huh7 cells
- assayProcedure: Cell proliferation, Huh7 (CellTiter Glo)
- Format: cell-based
- conditionInfo: Homo sapiens, Huh-7; Huh7; 120 hr; read-out: Cell Proliferation GI50 (nM) HUH

Example cases with answers are listed next.
compound	systemTested	GI50
C=CC(=O)Nc1ccccc1Nc1ncc2c(n1)N(C1COC1)C(=O)N(c1cc(OC)cc(OC)c1)C2	Huh7 cells	> 1000 nM
C=CC(=O)NC1COCC1Nc1ncc2c(n1)N(CC)C(=O)N(c1c(Cl)c(OC)cc(OC)c1Cl)C2 (centres unmarked)	Huh7 cells	< 100 nM
C=CC(=O)Nc1cc(C(=O)NC2CCN(C)CC2)ccc1Nc1ncc2c(n1)N(C)C(=O)N(c1cc(OC)cc(OC)c1)C2	Huh7 cells	> 1000 nM
C=CC(=O)NC1CCCCC1Nc1ncc2c(n1)N(Cc1cccc(NC(=O)CC)c1)C(=O)N(c1c(Cl)c(OC)cc(OC)c1Cl)C2 (racemic)	Huh7 cells	101 to 500 nM

Record C=CC(=O)NC1CCCCC1Nc1ncc2c(n1)N(C)C(=O)N(c1c(Cl)c(OC)cc(OC)c1Cl)C2 (racemic) has Huh7 cells GI50 equal to 501 to 999 nM

Record `C=CC(=O)Nc1ccccc1Nc1ncc2c(n1)N(C)C(=O)N(c1cc(OC)cc(OC)c1)C2` has Huh7 cells GI50 equal to > 1000 nM

Record `C=CC(=O)N[C@H]1CCCC[C@H]1Nc1ncc2c(n1)N(Cc1cscn1)C(=O)N(c1c(Cl)c(OC)cc(OC)c1Cl)C2` has Huh7 cells GI50 equal to 101 to 500 nM

Record `C=CC(=O)Nc1nn(C)cc1Nc1ncc2c(n1)N(C)C(=O)N(c1c(Cl)c(OC)cc(OC)c1Cl)C2` has Huh7 cells GI50 equal to 101 to 500 nM

Record C=CC(=O)NC1CN(C2CCN(C)CC2)CC1Nc1ncc2c(n1)N(C)C(=O)N(c1c(Cl)c(OC)cc(OC)c1Cl)C2 (racemic) has Huh7 cells GI50 equal to > 1000 nM

Record C=CC(=O)NC1CN(C(C)=O)CC1Nc1ncc2c(n1)N(C)C(=O)N(c1c(Cl)c(OC)cc(OC)c1Cl)C2 (racemic) has Huh7 cells GI50 equal to 501 to 999 nM

Record `C=CC(=O)Nc1cc(OC)ccc1Nc1ncc2cc(-c3c(Cl)c(OC)cc(OC)c3Cl)c(=O)n(C)c2n1` has Huh7 cells GI50 equal to < 100 nM

====

Listed compounds paired with reported IC50
- systemTested: FGFR4-WT (Homo sapiens (Human), UniProt P22455)
- assayProcedure: Omnia assay for potency assessment against FGFR4 enzyme
- Type: biochemical
- conditionInfo: method a: Invitrogen FGFR4-WT 10 nM, ATP 300 uM, Y10-Sox 10 uM; read-out: FGFR4 IC50
- Protocol: A 10× stock solution of FGFR4-WT (PR4380C), (from Invitrogen, Carlsbad, Calif.) corresponding to method a in Table 7, was prepared as described below. Alternatively, a 10× stock solution of FGFR4-WT (F01-11G), (SignalChem, Richmond, BC) corresponding to method b in Table 7, was prepared as described below. […] The reactions were monitored every 71 seconds for 240 minutes at λex360/λem485 in a Synergy plate reader from BioTek (Winooski, Vt.).

Example cases with answers are listed next.
compound	readoutValue
C=CC(=O)NC1CCCCC1Nc1ncc2c(n1)N(CCF)C(=O)N(c1cc(OC)cc(OC)c1Cl)C2 (racemic)	501 to 999 nM
C=CC(=O)NC1CCCCC1Nc1ncc2c(n1)N(CC(F)F)C(=O)N(c1c(Cl)c(OC)cc(OC)c1Cl)C2 (racemic)	101 to 500 nM
C=CC(=O)N(C)C1CCCCC1Nc1ncc2c(n1)N(C)C(=O)N(c1c(Cl)c(OC)cc(OC)c1Cl)C2 (centres unmarked)	< 100 nM
C=CC(=O)Nc1cc(N2CCN(C(C)=O)CC2)ccc1Nc1ccc2c(c1)N(C)C(=O)N(c1cc(OC)cc(OC)c1)C2	< 100 nM

Below: the item to evaluate.
Record C=CC(=O)NC1CCCCC1Nc1ncc2c(n1)N(C1CC1)C(=O)N(c1c(Cl)c(OC)cc(OC)c1Cl)C2 (racemic) , field IC50: 101 to 500 nM

====

- Tested on: Huh7 cells
- assayProcedure: Cell proliferation, Huh7 (CellTiter Glo)
- Assay type: cell-based
- conditionInfo: Homo sapiens, Huh-7; Huh7; 120 hr; read-out: Cell Proliferation GI50 (nM) HUH
Listed compounds paired with reported GI50

compound	quantityName	readoutValue
C=CC(=O)Nc1ccccc1Nc1ncc2c(n1)N(CCF)C(=O)N(c1cc(OC)cc(OC)c1)C2	GI50	> 1000 nM
C=CC(=O)NC1CCCCC1Nc1ncc2c(n1)N(Cc1ccn(C)c(=O)c1)C(=O)N(c1c(Cl)c(OC)cc(OC)c1Cl)C2 (stereo not shown)	GI50	> 1000 nM
C=CC(=O)Nc1ccccc1Nc1ncc2c(n1)N(C)C(=O)N(c1c(F)c(OC)cc(OC)c1F)C2	GI50	101 to 500 nM
C=CC(=O)NC1COCC1Nc1ncc2c(n1)N(C)C(=O)N(c1c(Cl)c(OC)cc(OC)c1Cl)C2 (stereo not shown)	GI50	101 to 500 nM
C=CC(=O)NC1CCCCC1Nc1ncc2c(n1)N(C)C(=O)N(c1cc(OC)cc(OC)c1Cl)C2 (racemic)	GI50	> 1000 nM

Record C=CC(=O)NC1CCCCC1Nc1ncc2c(n1)N(Cc1ccnc(N)c1)C(=O)N(c1c(Cl)c(OC)cc(OC)c1Cl)C2 (stereo not shown) has Huh7 cells GI50 equal to 101 to 500 nM

Record `C=CC(=O)Nc1ccccc1Nc1ncc2c(n1)N(CCF)C(=O)N(c1cc(OC)cc(OC)c1Cl)C2` has Huh7 cells GI50 equal to 501 to 999 nM
